B1: TRIM14 (parent)
chain: YARTPTLDPDTMHARLRLSADRLT

- Variants of: B1
- experiment description: protein stability index of a GFP-peptide fusion (GPS, HEK-293T) (PSI 1-6); higher = more stable;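 further: lentivirally expressed fusions sorted by FACS into six bins by GFP to DsRed ratio, PSI derived from sequencing read proportions per bin multiplied by bin number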
- experimental context: c terminus: a fixed tail appended
Threshold rule: protein stability index greater than or equal to 3 is met; below that, not met.

Take a look at these entries with their results.
> print(dat)
                    sequence.chain  qualitative.label
1  YARTPTLDPDTMHARLRLSADGLT [R22G]            not met
2  YARTPTLDPDTMHARLRPSADRLT [L18P]                met
3   YARTPTLFPDTMHARLRLSADRLT [D8F]            not met
4  YARTPTLDPDTMHARLRLHADRLT [S19H]            not met
5  YARTPTLDPDTMHARLRLSPDRLT [A20P]            not met
6  YARTPTLDPDTMIARLRLSADRLT [H13I]            not met
7  YARTPTLDPHTMHARLRLSADRLT [D10H]            not met
8  YARTPTLDPDTMHARLRLSADRIT [L23I]            not met

-- ask Is protein stability index for YARTPTLDPDTMHARLRLSTDRLT [A20T] at or above 3?
-- reply not met

-- ask Please tell me: is the variant YARTYTLDPDTMHARLRLSADRLT [P5Y] at or over 3 in terms of protein stability index?
-- reply not met

-- ask Test whether the variant YAATPTLDPDTMHARLRLSADRLT [R3A] records protein stability index of 3 or higher.
-- reply not met

-- ask Does the variant YARTPTLDPDTMHARLRLSSDRLT [A20S] have recorded protein stability index that is 3 or more?
-- reply met

-- ask Does YARFPTLDPDTMHARLRLSADRLT [T4F] have a reported protein stability index of at least 3?
-- reply not met

-- ask Given the entry YARTPTLDPDTMHARLNLSADRLT [R17N] , answer whether its protein stability index meets or surpasses 3.
-- reply met

-- ask Record YARTPTLDPDTMHARLRLSCDRLT [A20C] ; criterion: protein stability index no lower than 3. Met?
-- reply not met

-- ask Does YARTPTLDPDTMHARLRLSADTLT [R22T] have a reported protein stability index of at least 3?
-- reply not met

-- ask // inclusive: protein stability index at least 3? input: YARTPTLDPDTMHARLRLSAGRLT [D21G]
-- reply not met

-- ask In plain terms: is recorded protein stability index at least 3 for YARTPTLDPDVMHARLRLSADRLT [T11V] ?
-- reply not met

-- ask Hi, just wondering whether YARTPTLDPDTMKARLRLSADRLT [H13K] shows protein stability index of 3 or higher.
-- reply not met

-- ask Test whether the variant YARTPTLDPDTMHARMRLSADRLT [L16M] records protein stability index of 3 or higher.
-- reply not met
